system.tested: IRAK4 (Homo sapiens)
Construct: endogenous in cells
test.description: ALE THP1 HTRF (Advanced Lipoxidation End Product THP1 Homogeneous Time Resolved Fluorescence)
condition.summary: THP1 cells
measurement.name: EC50 (µM)

{"molecule": "C[C@H](C#N)Nc1cc(-n2ncc3cc(C#N)cnc32)ncc1C(=O)N[C@H]1CC[C@H](CCN2CCN(c3ccc(C4CCC(=O)NC4=O)cc3)CC2)CC1 (stereo in doubt) [P-128]", "system.tested": "IRAK4 (Homo sapiens)", "result.units": "µM", "EC50": 0.047}
{"molecule": "CS(=O)(=O)N1CCC(Nc2cc(-n3ncc4cc(C#N)c(N)nc43)ncc2C(=O)N[C@H]2CC[C@H](CCN3CCN(c4ccc(C5CCC(=O)NC5=O)cc4)CC3)CC2)CC1 (some centres unmarked) [P-133]", "system.tested": "IRAK4 (Homo sapiens)", "result.units": "µM", "EC50": 0.01}
{"molecule": "N#Cc1cnc2c(cnn2-c2cc(NC3CC3)c(C(=O)NC3CCC(NCC4CCN(c5ccc(C6CCC(=O)NC6=O)cc5)CC4)CC3)cn2)c1 (centres unmarked) [P-102]", "system.tested": "IRAK4 (Homo sapiens)", "result.units": "µM", "EC50": 0.032}
{"molecule": "CC1(c2ccc(N3CCN(CCC4CCC(NC(=O)c5cnc(-n6ncc7cc(C#N)cnc76)cc5NC5CC5)CC4)CC3)cc2)CCC(=O)NC1=O (single isomer, unassigned) [P-94]", "system.tested": "IRAK4 (Homo sapiens)", "result.units": "µM", "EC50": 0.011}
{"molecule": "O=C1CCC(N2C(=O)c3ccc(N4CCC(C(=O)NC5CCC(n6cc(-c7cnc(Nc8ccc9ncsc9c8)cc7NC7CCCC7)nn6)CC5)CC4)cc3C2=O)C(=O)N1 (centres unmarked) [P-5]", "system.tested": "IRAK4 (Homo sapiens)", "result.units": "µM", "EC50": 0.054}

P: N#Cc1cnc2c(cnn2-c2cc(NC3CCCC3)c(C(=O)NC3CCC(C(=O)Nc4ccc(C(=O)Nc5ccc(C6CCC(=O)NC6=O)cc5)cc4)CC3)cn2)c1 (centres unmarked) [P-20]
Q: N#Cc1cnc2c(-c3cc(NC4CC4)c(C(=O)NC4CCC(CCN5CCN(c6ccc(C7CCC(=O)NC7=O)cc6)CC5)CC4)cn3)cnn2c1 (centres unmarked) [P-93]
Select the item with the higher value of EC50 from the options P and Q listed. Identify your pick by its label.
P
(P: 1.63 µM, Q: 0.023 µM)

a: C[C@H](C#N)Nc1cc(-n2ncc3cc(C#N)c(N)nc32)ncc1C(=O)N[C@H]1CC[C@H](CCN2CCN(c3ccc(C4CCC(=O)NC4=O)cc3F)[C@H](C)C2)CC1 (some centres unmarked) [P-165]
b: N#Cc1cnc2c(cnn2-c2cc(NC3CC3)c(C(=O)NC3CCC(C(=O)N4CCN(c5ccc6c(c5)C(=O)N(C5CCC(=O)NC5=O)C6)CC4)CC3)cn2)c1 (centres unmarked) [P-22]
Looking only at measured EC50, which entry is lower, a or b ? Answer format: the label of the selected item.
a
(a: 0.002 µM, b: 1.11 µM)

a: C[C@H](C#N)Nc1cc(-n2ncc3cc(C#N)cnc32)ncc1C(=O)N[C@H]1CC[C@H](CCN2CCN(c3ccc(C4CCC(=O)NC4=O)cc3)CC2)CC1 (some centres unmarked) [P-91]
b: N#Cc1cnc2c(cnn2-c2cc(NC3CCCC3)c(-c3cn([C@H]4CC[C@H](CCN5CCN(c6ccc(C7CCC(=O)NC7=O)cc6)CC5)CC4)nn3)cn2)c1 (some centres unmarked) [P-54]
a or b : whose EC50 is greater? When you have decided, please share the label of that item.
b

====

system.tested: IRAK4 (Homo sapiens)
Construct: endogenous in cells; host or cells: THP-1 cells
test.description: LVL THP1 HTRF (THP1 Homogeneous Time Resolved Fluorescence)
Format: cell-based
condition.summary: THP1 cells, 18 h incubation with compound
measurement.name: LVL THP1 HTRF YMIN (%)

{"compound": "C[C@H](C#N)Nc1cc(-n2ncc3cc(C#N)cnc32)ncc1-n1cc(C2CCC(CCN3CCN(c4ccc(C5CCC(=O)NC5=O)cc4)C4COCC43)CC2)nn1 (single isomer, unassigned) [P-235]", "system.tested": "IRAK4 (Homo sapiens)", "LVL THP1 HTRF YMIN (%)": 2.6}

a: C[C@H](C#N)Nc1cc(-n2ncc3cc(C#N)cnc32)ncc1-n1cc([C@H]2CC[C@H](CCN3CC[C@@H]4[C@H]3CN4c3ccc(N4CCC(=O)NC4=O)cc3)CC2)nn1 (single isomer, unassigned) [P-495]
b: C[C@H](C#N)Nc1cc(-n2ncc3cc(C#N)cnc32)ncc1C(=O)N[C@H]1CC[C@H](CCN2CC[C@H]3[C@@H]2CCN3c2ccc(N3CCC(=O)NC3=O)c(Cl)c2)CC1 [P-475]
Endpoint returns the identifier whose LVL THP1 HTRF YMIN is numerically larger, either a or b . Record your answer as the label of the chosen record.
b
(b: 6.4%, a: 2.7%)

====

system.tested: IRAK4 (Homo sapiens, UniProt Q9NWZ3)
Construct: endogenous in cells; host or cells: THP-1 cells
Sequence (Q9NWZ3 whole entry): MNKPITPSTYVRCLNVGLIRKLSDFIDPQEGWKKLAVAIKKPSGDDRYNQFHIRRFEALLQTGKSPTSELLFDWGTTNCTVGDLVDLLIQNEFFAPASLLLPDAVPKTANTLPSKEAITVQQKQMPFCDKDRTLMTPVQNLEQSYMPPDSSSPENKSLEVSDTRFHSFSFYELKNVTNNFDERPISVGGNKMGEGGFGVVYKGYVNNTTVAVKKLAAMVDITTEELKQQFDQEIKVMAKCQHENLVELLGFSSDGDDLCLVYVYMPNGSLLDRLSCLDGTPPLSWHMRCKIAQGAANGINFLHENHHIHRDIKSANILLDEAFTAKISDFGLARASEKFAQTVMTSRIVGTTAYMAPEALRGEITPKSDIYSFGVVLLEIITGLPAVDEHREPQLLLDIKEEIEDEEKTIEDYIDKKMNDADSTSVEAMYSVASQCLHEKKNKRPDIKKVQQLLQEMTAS
test.description: LVL THP1 HTRF (THP1 Homogeneous Time Resolved Fluorescence)
Format: cell-based
condition.summary: THP1 cells, 18 h incubation with compound, read-out: LVL THP1 HTRF EC50
Procedure: Cell culture media was prepared in a tissue culture hood in a sterile environment by adding 10% FBS and 1% Penicillin Streptomycin to 500 mL no phenol red RPMI 1640 media. The media was filtered through a Nalgene Bottle Top Filter and stored at 4° C. For Homogenous Time Resolved Fluorescence (HTRF) assays, a Cisbio HTRF kit was used, which included: Lysis Buffer #1 4×, Blocking Reagent #3 100×, 20× Antibody 1 (Anti-IRAK4 d2), 20× Antibody 2 (Anti-IRAK4 k), and Detection Buffer. […]
measurement.name: DC50 (nM)

{"molecule": "C[C@H](C#N)Nc1cc(-n2ncc3cc(C#N)cnc32)ncc1-n1cc([C@H]2CC[C@H](CCN3CC[C@H]4[C@@H]3CCN4c3ccc([C@@]4(C)CCC(=O)NC4=O)nc3)CC2)nn1 (single isomer, unassigned) [P-286]", "DC50, nM": 8.5}
{"molecule": "C[C@H](C#N)Nc1cc(-n2ncc3cc(C#N)cnc32)ncc1-n1cc([C@H]2CC[C@H](CCN3CCC(c4ccn(C5CCC(=O)NC5=O)c(=O)c4)CC3)CC2)nn1 (stereo partly shown)", "DC50, nM": 5.1}
{"molecule": "C[C@H](C#N)Nc1cc(-n2ncc3cc(C#N)cnc32)ncc1-n1cc(C2CCC(CCN3C[C@@H](C)N(c4ccc(C5CCC(=O)NC5=O)cc4)C[C@@H]3C)CC2)nn1 (stereo partly shown)", "DC50, nM": 9}
{"molecule": "C[C@H](C#N)Nc1cc(-n2ncc3cc(C#N)c(N)nc32)ncc1-n1cc([C@H]2CC[C@H](CCN3[C@@H](C)CN(c4ccc([C@@]5(C)CCC(=O)NC5=O)cc4)C[C@@H]3C)CC2)nn1", "DC50, nM": 9.8}
{"molecule": "C[C@H](C#N)Nc1cc(-n2ncc3cc(C#N)cnc32)ncc1-n1cc([C@H]2CC[C@](O)(CCN3CCN(c4ccc([C@@]5(C)CCC(=O)NC5=O)cc4)[C@@H](C)C3)CC2)nn1 (single isomer, unassigned)", "DC50, nM": 57.7}
{"molecule": "COc1cc(C2CCC(=O)NC2=O)ccc1N1CCN(CC[C@H]2CC[C@H](NC(=O)c3cnc(-n4ncc5cc(C#N)c(N)nc54)cc3N[C@H](C)C#N)CC2)C[C@H]1C (stereo partly shown)", "DC50, nM": 5}
{"molecule": "C[C@H](C#N)Nc1cc(-n2ncc3cc(C#N)cnc32)ncc1C(=O)N[C@H]1CC[C@H](CCN2CC[C@@H](c3ccc([C@@]4(C)CCC(=O)NC4=O)cc3)C[C@@H]2C)CC1", "DC50, nM": 18.8}
{"molecule": "C[C@H](C#N)Nc1cc(-n2ncc3cc(C#N)cnc32)ncc1-n1cc(C2CCC(CCN3[C@H](C)CN(c4ccc([C@@]5(C)CCC(=O)NC5=O)cc4)C[C@H]3C)CC2)nn1 (stereo partly shown)", "DC50, nM": 159}

A: C[C@H](C#N)Nc1cc(-n2ncc3cc(C#N)cnc32)ncc1-n1cc([C@H]2CC[C@H](CCN3CCC(c4ccc(N5CCC(=O)NC5=O)cc4)C3)CC2)nn1 (single isomer, unassigned) [P-491]
B: C[C@H](C#N)Nc1cc(-n2ncc3cc(C#N)cnc32)ncc1-n1cc([C@H]2CC[C@H](CCN3CCN(c4ccc(NC5CCC(=O)NC5=O)cc4)CC3)CC2)nn1 (stereo partly shown)
Just curious, which one has the larger DC50 reading, A or B ? To answer, give the label that identifies your chosen option.
A
